- Tested on: Escherichia coli TOP10
- protocol.summary: shrunken log2 fold change of peptide-encoding DNA abundance (4.5 h post-induction vs induction); higher = less antimicrobial activity (less host growth inhibition)
- measurement.setup: time post-induction: 4.5 h; library: site-saturation at positions 5, 18, 19, 20
Note to self: values exactly at 0.06 are 1. So shrunken log2 fold change at or above 0.06 is 1, below is 0.

[
  {
    "sequence.content": "RRIRGRPPRLPRPRPRPGRAPRP",
    "experimental.target": "Escherichia coli TOP10",
    "qualitative.label": 1
  },
  {
    "sequence.content": "RRIRSRPPRLPRPRPRPMAPPRP",
    "experimental.target": "Escherichia coli TOP10",
    "qualitative.label": 1
  },
  {
    "sequence.content": "RRIRERPPRLPRPRPRPLCFPRP",
    "experimental.target": "Escherichia coli TOP10",
    "qualitative.label": 0
  },
  {
    "sequence.content": "RRIRVRPPRLPRPRPRPFGAPRP",
    "experimental.target": "Escherichia coli TOP10",
    "qualitative.label": 1
  }
]

###

- Tested on: Escherichia coli TOP10;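 note: peptides expressed intracellularly from a pBAD plasmid library in pooled LB shake-flask culture, induced with 0.3% L-arabinose, DNA abundance read by NGS, three biological replicates, DESeq2 with apeglm shrinkage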
- protocol.summary: shrunken log2 fold change of peptide-encoding DNA abundance (4.5 h post-induction vs induction); higher = less antimicrobial activity (less host growth inhibition)
- measurement.setup: time post-induction: 4.5 h; library: site-saturation at positions 5, 18, 19, 20
Entries get a class label from measured shrunken log2 fold change. See ranges: low bin: < -0.2; mid bin: ≥ -0.2 and < 0.07; high bin: ≥ 0.07

[
  {
    "sequence.content": "RRIRPRPPRLPRPRPRPKFGPRP",
    "qualitative.label": "mid bin"
  },
  {
    "sequence.content": "RRIRTRPPRLPRPRPRPFEMPRP",
    "qualitative.label": "low bin"
  },
  {
    "sequence.content": "RRIRWRPPRLPRPRPRPTVMPRP",
    "qualitative.label": "low bin"
  },
  {
    "sequence.content": "RRIRFRPPRLPRPRPRPPKYPRP",
    "qualitative.label": "mid bin"
  },
  {
    "sequence.content": "RRIRGRPPRLPRPRPRPSNKPRP",
    "qualitative.label": "mid bin"
  },
  {
    "sequence.content": "RRIRFRPPRLPRPRPRPCDLPRP",
    "qualitative.label": "mid bin"
  },
  {
    "sequence.content": "RRIRFRPPRLPRPRPRPNIEPRP",
    "qualitative.label": "low bin"
  },
  {
    "sequence.content": "RRIRWRPPRLPRPRPRPEWRPRP",
    "qualitative.label": "high bin"
  },
  {
    "sequence.content": "RRIRYRPPRLPRPRPRPVGPPRP",
    "qualitative.label": "low bin"
  },
  {
    "sequence.content": "RRIRARPPRLPRPRPRPVYSPRP",
    "qualitative.label": "low bin"
  },
  {
    "sequence.content": "RRIRQRPPRLPRPRPRPGNQPRP",
    "qualitative.label": "mid bin"
  },
  {
    "sequence.content": "RRIRFRPPRLPRPRPRPTERPRP",
    "qualitative.label": "low bin"
  },
  {
    "sequence.content": "RRIRPRPPRLPRPRPRPWNWPRP",
    "qualitative.label": "high bin"
  },
  {
    "sequence.content": "RRIRGRPPRLPRPRPRPYFFPRP",
    "qualitative.label": "mid bin"
  },
  {
    "sequence.content": "RRIRHRPPRLPRPRPRPSDWPRP",
    "qualitative.label": "low bin"
  },
  {
    "sequence.content": "RRIRRRPPRLPRPRPRPSSHPRP",
    "qualitative.label": "mid bin"
  },
  {
    "sequence.content": "RRIRFRPPRLPRPRPRPKPEPRP",
    "qualitative.label": "high bin"
  },
  {
    "sequence.content": "RRIRFRPPRLPRPRPRPHVKPRP",
    "qualitative.label": "mid bin"
  },
  {
    "sequence.content": "RRIRVRPPRLPRPRPRPQEAPRP",
    "qualitative.label": "mid bin"
  },
  {
    "sequence.content": "RRIRARPPRLPRPRPRPACHPRP",
    "qualitative.label": "high bin"
  },
  {
    "sequence.content": "RRIRKRPPRLPRPRPRPWMVPRP",
    "qualitative.label": "mid bin"
  },
  {
    "sequence.content": "RRIRARPPRLPRPRPRPHRFPRP",
    "qualitative.label": "mid bin"
  },
  {
    "sequence.content": "RRIRKRPPRLPRPRPRPVAGPRP",
    "qualitative.label": "high bin"
  },
  {
    "sequence.content": "RRIRGRPPRLPRPRPRPNCDPRP",
    "qualitative.label": "high bin"
  },
  {
    "sequence.content": "RRIRWRPPRLPRPRPRPNFVPRP",
    "qualitative.label": "high bin"
  },
  {
    "sequence.content": "RRIRIRPPRLPRPRPRPVQCPRP",
    "qualitative.label": "mid bin"
  },
  {
    "sequence.content": "RRIRKRPPRLPRPRPRPMIYPRP",
    "qualitative.label": "low bin"
  },
  {
    "sequence.content": "RRIRFRPPRLPRPRPRPWKDPRP",
    "qualitative.label": "mid bin"
  },
  {
    "sequence.content": "RRIRLRPPRLPRPRPRPTRNPRP",
    "qualitative.label": "high bin"
  },
  {
    "sequence.content": "RRIRGRPPRLPRPRPRPLPLPRP",
    "qualitative.label": "high bin"
  },
  {
    "sequence.content": "RRIRMRPPRLPRPRPRPCHPPRP",
    "qualitative.label": "mid bin"
  },
  {
    "sequence.content": "RRIRCRPPRLPRPRPRPSQWPRP",
    "qualitative.label": "low bin"
  },
  {
    "sequence.content": "RRIRFRPPRLPRPRPRPCCGPRP",
    "qualitative.label": "low bin"
  },
  {
    "sequence.content": "RRIRNRPPRLPRPRPRPSCYPRP",
    "qualitative.label": "mid bin"
  },
  {
    "sequence.content": "RRIRMRPPRLPRPRPRPECCPRP",
    "qualitative.label": "high bin"
  },
  {
    "sequence.content": "RRIRQRPPRLPRPRPRPFLCPRP",
    "qualitative.label": "low bin"
  },
  {
    "sequence.content": "RRIRMRPPRLPRPRPRPTCAPRP",
    "qualitative.label": "high bin"
  },
  {
    "sequence.content": "RRIRPRPPRLPRPRPRPSCSPRP",
    "qualitative.label": "low bin"
  },
  {
    "sequence.content": "RRIRYRPPRLPRPRPRPDFCPRP",
    "qualitative.label": "low bin"
  },
  {
    "sequence.content": "RRIRWRPPRLPRPRPRPMRWPRP",
    "qualitative.label": "high bin"
  },
  {
    "sequence.content": "RRIRERPPRLPRPRPRPPSAPRP",
    "qualitative.label": "high bin"
  },
  {
    "sequence.content": "RRIRMRPPRLPRPRPRPTHVPRP",
    "qualitative.label": "mid bin"
  },
  {
    "sequence.content": "RRIRYRPPRLPRPRPRPWSCPRP",
    "qualitative.label": "mid bin"
  },
  {
    "sequence.content": "RRIRARPPRLPRPRPRPDHSPRP",
    "qualitative.label": "mid bin"
  },
  {
    "sequence.content": "RRIRQRPPRLPRPRPRPSFYPRP",
    "qualitative.label": "low bin"
  },
  {
    "sequence.content": "RRIRERPPRLPRPRPRPHSDPRP",
    "qualitative.label": "mid bin"
  },
  {
    "sequence.content": "RRIRNRPPRLPRPRPRPTSHPRP",
    "qualitative.label": "mid bin"
  },
  {
    "sequence.content": "RRIRKRPPRLPRPRPRPKCEPRP",
    "qualitative.label": "high bin"
  },
  {
    "sequence.content": "RRIRARPPRLPRPRPRPEVWPRP",
    "qualitative.label": "high bin"
  },
  {
    "sequence.content": "RRIRARPPRLPRPRPRPHFIPRP",
    "qualitative.label": "high bin"
  }
]
